- systemTested: T1, Ep-CAM (UniProt P16422 24-265, limits assumed)
- T1 construct: Antigen of the Biacore analysis of ING-1 variants
- T1 sequence (looked up): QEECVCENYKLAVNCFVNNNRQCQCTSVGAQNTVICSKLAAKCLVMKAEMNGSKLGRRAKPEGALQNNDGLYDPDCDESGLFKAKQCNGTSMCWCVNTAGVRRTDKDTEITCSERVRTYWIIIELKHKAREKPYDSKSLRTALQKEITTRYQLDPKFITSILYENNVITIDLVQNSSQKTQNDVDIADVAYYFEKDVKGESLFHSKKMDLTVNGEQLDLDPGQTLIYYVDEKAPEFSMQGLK
- assayInfo: Biacore, Fab periplasmic extract

binder: ING-1 heavy chain D104Q (Fab, V domains shown) VH: QIQLVQSGPELKKPGETVKISCKASGYTFTKYGMNWVKQAPGKGLKWMGWINTYTEEPTYGDDFKGRFAFSLETSASTANLQINNLKSEDTATYFCARFGSAVQYWGQGTSVTVSS VL: DIVMTQAAFSNPVTLGTSGSISCRSSKSLLHSNGITYLYWYLQKPGQSPQLLIYQMSNLASGVPDRFSSSGSGTDFTLRISRVEAEDVGVYYCAQNLELPRTFGGGTKLEMKR
binding result: no binding
--
binder: ING-1 heavy chain G33W (Fab, V domains shown) VH: QIQLVQSGPELKKPGETVKISCKASGYTFTKYWMNWVKQAPGKGLKWMGWINTYTEEPTYGDDFKGRFAFSLETSASTANLQINNLKSEDTATYFCARFGSAVDYWGQGTSVTVSS VL: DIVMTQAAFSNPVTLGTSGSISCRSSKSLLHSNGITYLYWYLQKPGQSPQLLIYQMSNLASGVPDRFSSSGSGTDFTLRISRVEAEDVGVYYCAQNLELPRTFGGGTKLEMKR
binding result: no binding
--
binder: ING-1 heavy chain T53Y (Fab, V domains shown) VH: QIQLVQSGPELKKPGETVKISCKASGYTFTKYGMNWVKQAPGKGLKWMGWINYYTEEPTYGDDFKGRFAFSLETSASTANLQINNLKSEDTATYFCARFGSAVDYWGQGTSVTVSS VL: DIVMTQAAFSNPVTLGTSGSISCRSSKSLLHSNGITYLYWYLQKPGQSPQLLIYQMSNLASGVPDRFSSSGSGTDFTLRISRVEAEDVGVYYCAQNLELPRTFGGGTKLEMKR
binding result: no binding
